Test: Plasma concentration after intravenous administration in rat in the presence of CYP 3A4 inhibitor
Assay type: in vivo
Details: rat, in vivo, iv, 3 mg/kg, male SD rats, test compound 3 mg/kg intravenously, ketoconazole 50 mg/kg intraperitoneally one hour before; read-out: AUC in the presence of ketoconazole (converted)

compound	AUC at 4 h / ng·h/mL
CCCCN1C(=O)C(CC(C)C)NC(=O)C12CCN(Cc1c(C)nn(-c3ccccc3)c1C)CC2 (stereo not shown)	4350

====

System: CYP 3A4
Test: Metabolic reaction in pooled human liver microsome with or without the CYP 3A4 inhibitor ketoconazole
Format: in vitro ADME
Conditions: 1 µmol/L test compound, 37°C, after 60 minutes, without ketoconazole
Description: Metabolic reaction of a test compound in pooled human liver microsome (Zenotec) in the presence of a specific inhibitor for each CYP molecular species was investigated and the CYP molecular species participating in the metabolism was estimated from the effect of each inhibitor. The following inhibitors were used as the specific inhibitors for CYP molecular species: […]
# reported Residual rate (%) Ketoconazole (-); entries follow
readout: Residual rate (%) Ketoconazole (-)

compound	testTarget	readout	units	recordedValue
CCCCN1C(=O)[C@@H]([C@H](O)C2CCCCC2)NC(=O)C12CCN(Cc1c(C)nn(-c3ccc(C(=O)NC)cc3)c1C)CC2	CYP 3A4	Residual rate (%) Ketoconazole (-)	%	19.4
CCCCN1C(=O)[C@H](CC2CCCCC2)NC(=O)C12CCN(Cc1ccc(Oc3ccc(C(=O)O)cc3)cc1)CC2	CYP 3A4	Residual rate (%) Ketoconazole (-)	%	28.2
CCCCN1C(=O)C(CC(C)C)NC(=O)C12CCN(Cc1c(C)nn(-c3ccccc3)c1C)CC2 (stereo not shown)	CYP 3A4	Residual rate (%) Ketoconazole (-)	%	32.1
CCCCN1C(=O)[C@@H]([C@H](O)C2CCCCC2)NC(=O)C12CCN(Cc1ccc(Oc3ccc(C(=O)O)cc3)cc1)CC2	CYP 3A4	Residual rate (%) Ketoconazole (-)	%	34.4
